target: p-EGFR Del19/C797S (H1975-clone #23 cells) (Homo sapiens, UniProt P00533); assay: Cell p-EGFR inhibition assay, HTRF, H1975-clone#23 (DEL19/C797S) cells; conditions: 16 h treatment, pEGFR inhibition
Sequence (P00533 with tags, fused parts or gaps DEL746-750/C797S, form open): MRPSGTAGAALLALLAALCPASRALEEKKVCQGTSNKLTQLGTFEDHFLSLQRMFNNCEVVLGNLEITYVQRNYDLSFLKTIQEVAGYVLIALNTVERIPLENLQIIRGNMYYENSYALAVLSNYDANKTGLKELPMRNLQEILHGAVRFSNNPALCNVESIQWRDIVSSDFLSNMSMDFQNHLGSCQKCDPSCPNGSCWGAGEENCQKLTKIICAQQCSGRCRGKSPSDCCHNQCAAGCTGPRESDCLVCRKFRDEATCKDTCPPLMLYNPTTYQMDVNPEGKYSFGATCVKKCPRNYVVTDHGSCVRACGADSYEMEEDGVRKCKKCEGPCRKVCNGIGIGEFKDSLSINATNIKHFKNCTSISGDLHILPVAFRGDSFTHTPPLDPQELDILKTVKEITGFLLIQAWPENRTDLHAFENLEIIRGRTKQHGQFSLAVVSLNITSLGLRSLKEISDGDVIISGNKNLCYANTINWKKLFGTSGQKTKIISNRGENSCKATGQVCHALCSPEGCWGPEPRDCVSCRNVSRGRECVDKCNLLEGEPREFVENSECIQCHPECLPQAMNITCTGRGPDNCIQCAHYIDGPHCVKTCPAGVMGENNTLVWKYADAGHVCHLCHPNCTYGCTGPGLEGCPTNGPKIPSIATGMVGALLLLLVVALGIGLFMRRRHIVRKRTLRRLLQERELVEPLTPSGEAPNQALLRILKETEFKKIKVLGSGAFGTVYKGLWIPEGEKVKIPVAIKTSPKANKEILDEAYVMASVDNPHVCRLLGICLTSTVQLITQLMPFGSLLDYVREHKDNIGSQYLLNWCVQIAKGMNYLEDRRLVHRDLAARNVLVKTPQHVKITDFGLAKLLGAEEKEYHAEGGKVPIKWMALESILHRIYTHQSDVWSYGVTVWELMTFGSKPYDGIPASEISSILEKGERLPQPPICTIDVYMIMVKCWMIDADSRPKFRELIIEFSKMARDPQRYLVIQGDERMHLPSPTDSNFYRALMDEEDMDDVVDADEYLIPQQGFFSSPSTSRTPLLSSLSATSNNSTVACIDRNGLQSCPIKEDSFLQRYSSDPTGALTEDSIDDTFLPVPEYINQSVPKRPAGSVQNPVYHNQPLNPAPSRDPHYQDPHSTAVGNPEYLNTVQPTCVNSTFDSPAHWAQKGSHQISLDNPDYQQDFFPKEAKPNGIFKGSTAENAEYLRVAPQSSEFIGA
observable: pIC50
Interpret pIC50 as the negative base-10 log of the concentration measured in mol/L.

The examples below pair each entry with its known result.
>>> reported_result("Cc1cc2cc(n1)-c1cnn(C)c1OC[C@H]1CCC(C1)CN1/C(=N/C2=O)Nc2ccc(N3CCC(N4CCC(Nc5cc(F)c([C@H]6CCC(=O)NC6=O)c(F)c5)CC4)CC3)cc21 (single isomer, unassigned)")
9.10
>>> reported_result("COC[C@@H]1CN(c2ccc3c(c2)N2CC4CC[C@H](COc5c(c(C(F)F)nn5C)-c5cc(cc(C)n5)C(=O)/N=C/2N3)C4)CCN1C1CCN(c2cc(F)c([C@H]3CCC(=O)NC3=O)c(F)c2)CC1")
8.51
>>> reported_result("Cc1cc2cc(n1)-c1cnn(C)c1OC[C@H]1CCC(C1)CN1/C(=N/C2=O)Nc2ccc(N3CC(N(C)C4CCN(c5cc(F)c([C@H]6CCC(=O)NC6=O)c(F)c5)CC4)C3)cc21")
9.05
>>> reported_result("CCc1nn(C)c2c1-c1cc(cc(C)n1)C(=O)/N=C1\\Nc3ccc(N4CCN(C5CCN(c6cc(F)c([C@H]7CCC(=O)NC7=O)c(F)c6)CC5)[C@@H](COC)C4)cc3N1C[C@@H]1CC[C@H](CO2)C1")
8.89

Any idea what pIC50 was measured for Cc1cc2cc(n1)-c1cnn(C)c1OC[C@H]1CCC(C1)CN1/C(=N/C2=O)Nc2ccc(N3CCN(C4CCN(c5ccc(NC6CCC(=O)NC6=O)cc5C)CC4)CC3)cc21 (some centres unmarked) ?
9.15
